Exercise: for every item that follows, state its recorded pKd.
Assay System: GRASP, Q7Z6J2
Sequence (Q7Z6J2 96-193): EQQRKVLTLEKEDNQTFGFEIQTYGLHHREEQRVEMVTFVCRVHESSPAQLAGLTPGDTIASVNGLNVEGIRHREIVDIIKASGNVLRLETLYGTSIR
Assay Method Text: holdup assay
Design: key: below the threshold = too weak to quantify, mostly under pKd 3.1 to 4
Test Conditions: plain residues with an end cap or a label only (N-terminal biotin on a linker: ado-ado)
Numbers only.

GFGEERESIL [KIDINS220, Q9ULH0] ... 3.48
TETASVCTKV [SLC23A1, Q9UHI7] ... 4.43

Proceed to the following item.
// query May I ask what pKd has been recorded for FVHPILQSAV [PRKCA, P17252] ?
// result 5.13

Origin of values: paper PMC9482650
